Readings of inhibition at 10 µM for the listed compounds
System: VEEV
Experiment: microbe, parasite or virus in culture
Format: cell-based
Conditions: Venezuelan equine encephalitis virus, Astrocyte; read-out: Viral Inh. 10 uM

Compound: CCCCCCCOC(=O)ONc1ccn([C@@H]2O[C@H](CO)[C@H](O)C2O)c(=O)n1 (stereo partly shown) [drawing 92]
inhibition at 10 µM: 94%

Compound: CC(C)OC(=O)[C@H](C)NP(=O)(OC[C@H]1O[C@@H](n2ccc(NO)nc2=O)C(O)[C@H]1O)Oc1ccccc1 (stereo partly shown) [drawing 93]
inhibition at 10 µM: 49%

Compound: O=c1nc(NO)ccn1[C@@H]1O[C@H](CO)[C@H](O)C1O (stereo partly shown) [drawing 91]
inhibition at 10 µM: 99%

Compound: CCCCCCCNC(=O)ONc1ccn([C@@H]2O[C@H](CO)[C@H](O)C2O)c(=O)n1 (stereo partly shown) [drawing 95]
inhibition at 10 µM: 51%

###

Tested on: U2OS cell line
Test: Cell viability, U2OS cell line (Chikungunya screen)
Conditions: 10 uM
Assay Metric: Cell Viability 10 uM

Compound: O=c1nc(NO)ccn1[C@@H]1O[C@H](CO)[C@H](O)C1O (some centres unmarked) [drawing 81]
Tested Target: U2OS cell line
Observed Value: 97% ± 5% (n = 4)
--
Compound: CC(C)OC(=O)[C@H](C)NP(=O)(OC[C@H]1O[C@@H](n2ccc(NO)nc2=O)C(O)[C@H]1O)Oc1ccccc1 (some centres unmarked) [drawing 83]
Tested Target: U2OS cell line
Observed Value: 99% ± 6% (n = 4)
--
Compound: O=c1nc(NO)c(F)cn1[C@@H]1O[C@H](CO)[C@H](O)C1O (some centres unmarked) [drawing 84]
Tested Target: U2OS cell line
Observed Value: 81% ± 4% (n = 4)
--
Compound: CCCCCCCOC(=O)ONc1ccn([C@@H]2O[C@H](CO)[C@H](O)C2O)c(=O)n1 (some centres unmarked) [drawing 82]
Tested Target: U2OS cell line
Observed Value: 93% ± 4% (n = 4)
--
Compound: CCCCCCCNC(=O)ONc1ccn([C@@H]2O[C@H](CO)[C@H](O)C2O)c(=O)n1 (some centres unmarked) [drawing 85]
Tested Target: U2OS cell line
Observed Value: 105% ± 2% (n = 4)

###

Assay: Rodent pharmacokinetic experiment in DBA-1J mice
Assay type: in vivo
Settings: female, DBA-1J, mouse, plasma, PO dosing 30 mg/kg
Assay Metric: Cmax (ng/mL)

Compound: O=c1nc(NO)ccn1[C@@H]1O[C@H](CO)[C@H](O)C1O (stereo in doubt) [EIDD-01931]
Observed Value: 3

###

Test: in vivo
Conditions: male, SD, rat, po, 50 mg/kg
Assay Metric: bioavailability (%)

Compound: O=c1nc(NO)ccn1[C@@H]1O[C@H](CO)[C@H](O)C1O (stereo in doubt)
Observed Value: 28

###

Assay: Rodent pharmacokinetic experiment in DBA-1J mice
Assay type: in vivo
Settings: female, DBA-1J, mouse, plasma, oral, after 300 mg/kg P.O. dose, read-out: 24 hr plasma levels
Assay Metric: concentration at 24 h

Molecule: O=c1nc(NO)ccn1[C@@H]1O[C@H](CO)[C@H](O)C1O (stereo in doubt)
Observed Value: ~400 nM

###

Test system: SARS Coronavirus Orbani
Assay: microbe, parasite or virus in culture
Assay type: cell-based
Settings: Severe acute respiratory syndrome coronavirus, Vero 76
Assay Metric: EC50 (µg/mL)

Molecule: CC1(O)[C@@H](O)[C@@H](CO)O[C@H]1n1ccc(NO)nc1=O (some centres unmarked)
Result Units: µg/mL
Op: >
Observed Value: 100
//
Molecule: CCCCCCCCC(=O)ONc1ccn([C@@H]2O[C@H](CO)[C@H](O)C2O)c(=O)n1 (some centres unmarked)
Result Units: µg/mL
Op: =
Observed Value: 0.19
//
Molecule: O=c1nc(NO)ccn1[C@@H]1O[C@H](CO)[C@H](O)C1O (some centres unmarked) [drawing 76]
Result Units: µg/mL
Op: <
Observed Value: 0.1
//
Molecule: CONc1ccn([C@@H]2O[C@H](CO)[C@H](O)C2O)c(=O)n1 (some centres unmarked)
Result Units: µg/mL
Op: >
Observed Value: 100
//
Molecule: CCCCCCCOC(=O)ONc1ccn([C@@H]2O[C@H](CO)[C@H](O)C2O)c(=O)n1 (some centres unmarked) [drawing 78]
Result Units: µg/mL
Op: =
Observed Value: 0.28

FYI, the data here is from patent US10874683B2.
